Item-by-item account of IC50
# SYSTEM_TESTED: Recombinant human HSD17B13 enzyme (Homo sapiens)
# Sequence (Q7Z5P4 20-300): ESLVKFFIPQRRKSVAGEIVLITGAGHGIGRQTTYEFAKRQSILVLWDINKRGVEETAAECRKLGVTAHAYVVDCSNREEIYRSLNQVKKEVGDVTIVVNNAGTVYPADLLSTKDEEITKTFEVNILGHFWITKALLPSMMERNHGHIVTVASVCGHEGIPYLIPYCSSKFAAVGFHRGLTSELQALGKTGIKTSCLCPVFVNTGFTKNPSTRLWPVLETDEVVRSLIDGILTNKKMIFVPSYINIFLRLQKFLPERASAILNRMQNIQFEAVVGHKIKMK
# ASSAY_NAME: HSD17b13 NAD(P)H-Glo biochemical assay
# CONDITION_NOTES: 50 uM estradiol, 1 mM NAD+, NAD(P)H-Glo luminescence; read-out: HSD17β13 IC50

Fill in: IC50 of Cn1nc(-c2cc(C(F)(F)F)cc(O)c2F)c2cnc(C3CCN(S(C)(=O)=O)CC3)cc21 is ___
100 to 1000 nM

---

# SYSTEM_TESTED: Recombinant human HSD17B13 enzyme (Homo sapiens)
# ASSAY_NAME: HSD17b13 NAD(P)H-Glo biochemical assay
# CONDITION_NOTES: 50 uM estradiol, 1 mM NAD+, NAD(P)H-Glo luminescence; read-out: HSD17β13 IC50
ATTRIBUTE_MEASURED: IC50

Fill in: IC50 of O=C(NC12CC(C1)C2)c1ccc2oc(-c3cc(C(F)(F)F)cc(O)c3F)nc2c1 is ___
< 0.1 µM
